Biological target: recombinant human KRAS^G12D protein (Homo sapiens, UniProt P01116, G12D)
Sequence (P01116 1-188 isoform P01116-2 G12D): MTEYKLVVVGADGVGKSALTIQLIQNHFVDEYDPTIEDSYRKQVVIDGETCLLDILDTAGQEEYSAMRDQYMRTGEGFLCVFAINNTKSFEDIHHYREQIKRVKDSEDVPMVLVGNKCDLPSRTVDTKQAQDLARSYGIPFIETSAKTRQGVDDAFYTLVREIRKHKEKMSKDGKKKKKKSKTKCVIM
Assay: Temperature-dependent Fluorescence (TdF) KRAS G12D protein binding assay
Conditions: 6 μM KRAS^G12D protein, 10 μM compound, Sypro Orange; Kd calculated from the fluorescent shift
# Kd listing for each entry below

Query: Read the entry Cc1cccc2cc(F)cc(-c3c(Cl)cc4c(N5CC6CCC(C5)N6)nc(OC[C@@]56CCCN5C[C@H](F)C6)nc4c3F)c12 [Compound 137] and write its reported Kd.
Response: < 0.5 µM

Query: Annotate the compound N#Cc1cc2c(N3CC4CCC(C3)N4)nc(OC[C@@]34CCCN3C[C@H](F)C4)nc2c(F)c1-c1c(N)cccc1F [Compound 91] with its measured Kd.
Response: > 5 µM

Query: Quick one: give measured Kd for Oc1cc(-c2c(Cl)cc3c(N4CC5CCC(C4)N5)nc(OCCN4CCC(O)C4)nc3c2F)c2ccccc2c1 (stereo not shown) [Compound 46]
Response: 0.5 to 5 µM

Query: Using known records, supply Kd for Oc1cc(-c2ccc3c(N4CC5CCC(C4)N5)nc(OCC45CCCN4CCC5)nc3c2F)c2c(Cl)cccc2c1 [Compound 82]
Response: > 5 µM
